measurement notes: Half life in mouse at 10 mg/kg, po
Format: ADME, organism-based
condition description: in vivo
Kindly supply the reported half-life values for the records listed here.
Give bare numbers, in h.

Recorded results for 2 molecules are shown here.
Dear colleague, I am looking for the recorded half-life of the following molecule: Cn1cc2cc(/N=c3\[nH]c(=O)n(-c4cncc(O[C@H]5CCOC5)c4)c(=O)n3Cc3cc(Cl)c(F)cc3F)c(Cl)cc2n1
2

Dear colleague, I am looking for the recorded half-life of the following molecule: COCCOc1cncc(-n2c(=O)[nH]/c(=N\c3cc4cn(C)nc4cc3Cl)n(Cc3cc(Cl)c(F)cc3F)c2=O)c1
2.2

Value sought for every listed molecule: half-life.
1. Cn1cc2cc(/N=c3\[nH]c(=O)n(-c4cccnc4)c(=O)n3Cc3cc(F)c(F)cc3F)c(Cl)cc2n1
2. Cc1cncc(-n2c(=O)[nH]/c(=N\c3cc4cn(C)nc4cc3Cl)n(Cc3cc(Cl)c(F)cc3Oc3ccc(C#N)c(F)c3)c2=O)c1

1: 3.8; 2: 1.7

From: ChEMBL document CHEMBL6134832
